- targetSystem: Type-A CCK receptor (Cavia porcellus)
- Construct: Cortical and pancreatic membranes were prepared as described; from tissue; host or cells: guinea pig pancreas membranes
- Sequence (Q63931 whole entry): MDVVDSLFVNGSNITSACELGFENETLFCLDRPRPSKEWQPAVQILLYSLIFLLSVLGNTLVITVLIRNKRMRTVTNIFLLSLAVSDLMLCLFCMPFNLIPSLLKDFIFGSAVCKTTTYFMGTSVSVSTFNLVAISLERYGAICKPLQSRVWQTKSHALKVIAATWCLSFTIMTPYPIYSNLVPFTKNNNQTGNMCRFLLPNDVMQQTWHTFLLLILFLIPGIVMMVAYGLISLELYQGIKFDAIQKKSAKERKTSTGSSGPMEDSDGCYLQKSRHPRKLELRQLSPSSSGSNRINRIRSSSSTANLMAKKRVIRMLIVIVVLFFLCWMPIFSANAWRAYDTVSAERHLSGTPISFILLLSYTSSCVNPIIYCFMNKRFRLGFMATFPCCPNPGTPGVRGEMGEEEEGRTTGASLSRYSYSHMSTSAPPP
- method: Radioligand binding of [125I]BH-CCK-8 in guinea pig pancreatic membrane preparations
*1 amine or outer side, *2 acyl side, *3 side chain or, on linkers, in order; H or OH if unused. Where a SMILES comes first, the peptide text is derived from it. Side-chain parts run from the residue outwards. [ ]: non-standard residue; d: D form. The star is where a group is joined. X11 = O=C(C=Cc1ccc(Cl)c(Cl)c1)*; NMeD = CN[C@@H](CC(=O)O)C(=O)O; NH(2-Me-phenyl) = Cc1ccccc1N*; X8 = O=C(C=Cc1ccc(O)c(O)c1)*; X21 = O=C(C=Cc1cccc(O)c1)*; Boc = CC(C)(C)OC(=O)*; CO = O=C([*:1])[*:2]
For each entry below, report its IC50 value.
The reply must contain the numeric value and, after it, the unit.

Ask | Form field: reported IC50 of Cc1ccccc1NC(=O)NCCCC[C@H](NC(=O)[C@H](Cc1c[nH]c2ccccc12)NC(=O)OC(C)(C)C)C(=O)N(C)[C@@H](CC(=O)O)C(=O)N[C@@H](Cc1ccccc1)C(N)=O [Example 60] (Boc-WK([CO-NH(2-Me-phenyl)])[NMeD]F-NH2)
Reply | 4.3 nM

Ask | Form field: reported IC50 of CC(C)(C)OC(=O)N[C@@H](Cc1c[nH]c2ccccc12)C(=O)N[C@@H](CCCCNC(=O)C=Cc1cccc(O)c1)C(=O)N[C@@H](CC(=O)O)C(=O)N[C@@H](Cc1ccccc1)C(N)=O [Example 5] (Boc-WK(X21)DF-NH2)
Reply | 37 nM

Ask | Form field: reported IC50 of CC(C)(C)OC(=O)N[C@@H](Cc1c[nH]c2ccccc12)C(=O)N[C@@H](CCCCNC(=O)C=Cc1ccc(Cl)c(Cl)c1)C(=O)N[C@@H](CC(=O)O)C(=O)N[C@@H](Cc1ccccc1)C(N)=O [Example 15] (Boc-WK(X11)DF-NH2)
Reply | 65 nM

Ask | Form field: reported IC50 of CC(C)(C)OC(=O)N[C@@H](Cc1c[nH]c2ccccc12)C(=O)N[C@@H](CCCCNC(=O)C=Cc1ccc(O)c(O)c1)C(=O)N[C@@H](CC(=O)O)C(=O)N[C@@H](Cc1ccccc1)C(N)=O [Example 14] (Boc-WK(X8)DF-NH2)
Reply | 33 nM
